molecular target: METTL3/14 (Homo sapiens (Human)); assay: METTL3/14 methyltransferase assay (RapidFire mass spectrometry, RFMS); type: biochemical; details: 5 nM METTL3/14, 0.2 μM RNA substrate, 0.5 μM SAM, 60 minutes at room temperature
Sequence (Q86U44 whole entry): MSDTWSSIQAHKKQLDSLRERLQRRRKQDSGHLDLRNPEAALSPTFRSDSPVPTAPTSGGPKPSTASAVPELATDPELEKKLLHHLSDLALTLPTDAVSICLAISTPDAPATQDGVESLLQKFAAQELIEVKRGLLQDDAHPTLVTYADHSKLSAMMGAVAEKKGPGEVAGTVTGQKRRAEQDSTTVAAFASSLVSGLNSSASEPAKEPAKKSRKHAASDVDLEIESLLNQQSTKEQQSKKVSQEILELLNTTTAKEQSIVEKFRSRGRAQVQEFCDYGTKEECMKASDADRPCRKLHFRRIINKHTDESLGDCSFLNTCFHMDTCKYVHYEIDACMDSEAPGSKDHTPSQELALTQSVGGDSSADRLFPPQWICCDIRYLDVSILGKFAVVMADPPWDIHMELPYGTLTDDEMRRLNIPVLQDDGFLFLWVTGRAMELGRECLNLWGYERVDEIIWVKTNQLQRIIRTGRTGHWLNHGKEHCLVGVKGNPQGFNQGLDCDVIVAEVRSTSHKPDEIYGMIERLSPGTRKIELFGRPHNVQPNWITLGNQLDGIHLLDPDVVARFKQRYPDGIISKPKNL
Sequence (Q9HCE5 whole entry partner): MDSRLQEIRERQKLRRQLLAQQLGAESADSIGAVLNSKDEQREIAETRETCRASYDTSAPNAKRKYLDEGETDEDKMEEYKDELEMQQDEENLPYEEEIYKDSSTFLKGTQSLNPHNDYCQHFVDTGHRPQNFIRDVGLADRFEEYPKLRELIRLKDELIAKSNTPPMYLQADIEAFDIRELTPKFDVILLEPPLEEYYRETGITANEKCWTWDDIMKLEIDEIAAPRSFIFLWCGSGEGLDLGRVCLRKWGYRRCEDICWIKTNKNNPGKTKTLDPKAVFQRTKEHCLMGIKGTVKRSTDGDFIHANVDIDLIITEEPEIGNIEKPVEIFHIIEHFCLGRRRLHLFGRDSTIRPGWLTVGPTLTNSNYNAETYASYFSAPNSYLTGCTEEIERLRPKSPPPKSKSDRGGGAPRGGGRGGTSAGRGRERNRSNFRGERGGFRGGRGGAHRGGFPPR

| MOLECULE | DISPLAY UNIT | IC50 |
| --- | --- | --- |
| Nc1ncnc2c1c(Br)cn2[C@@H]1C[C@H](c2ccc(CNCC3CCC3)cc2)[C@@H](O)[C@H]1O | nM | 150 |
| Nc1ncnc2c1c(Br)cn2[C@@H]1C[C@H](c2cccc(C(=O)NCC34CC(F)(C3)C4)c2)[C@@H](O)[C@H]1O | nM | 7930 |
| Nc1ncnc2c1c(Br)cn2[C@@H]1C[C@H](c2cccc(CNCC34CC(F)(C3)C4)c2)[C@@H](O)[C@H]1O | nM | 3010 |
| Nc1ncnc2c1c(Br)cn2[C@@H]1O[C@H](/C=C/CCCNCC23CC(F)(C2)C3)[C@@H](O)[C@H]1F | nM | 60 |
| Nc1ncnc2c1c(Br)cn2[C@@H]1O[C@H](/C=C/CCCNCc2ccccc2)[C@@H](O)[C@H]1O [Example 1] | nM | 44.8 |
| Nc1ncnc2c1c(Br)cn2[C@@H]1C[C@H](c2cccc(CN3CCC4(CCC4)C3)c2)[C@@H](O)[C@H]1O | nM | 2640 |
| Nc1ncnc2c1c(Br)cn2[C@@H]1O[C@H](/C=C/CCCN2CCOCC2)[C@@H](O)[C@H]1O | nM | 1090 |
